These entries and their values trace back to paper PMC4769559.

- target_or_test_system: truncate haemagglutinin-neuraminidase (HN) 49–577 aa of NDV La Sota fused to the yeast GAL4 DNA-BD (Newcastle disease virus, La Sota, UniProt O90340, strain)
- assay_summary: two-hybrid
- setup_conditions: partners not purified
measured_metric: binding result

binder	reported
VHH1 fused to the Gal4 activation domain (pAD-VHH, pGADT7-Rec) (VHH) VHH: QVQLVESGGGSVQAGGSLTLSCAASGATDSSSCMGWFRQAPGKEREGVANIDSDGNTNYAESVMGRFTISQDNAKNTLYLQMNTLKPEDTAMYRCAADPGGSWCVFLLARENALDAWGQGTLVTVSS	binds
VHH4 fused to the Gal4 activation domain (pAD-VHH, pGADT7-Rec) (VHH) VHH: QVQLVESGGGSVQAGGPLRLSCAVSGYSYSSVCMAWFRQAPGKEREAVAGIYTGGGNKYYADSVKGRFTISQDNTKNTLYLQMNSLKPEDTAMYYCAADLTVAACVPGRPQLTEEYNIWGQGTLVTVSS	binds
VHH2 fused to the Gal4 activation domain (pAD-VHH, pGADT7-Rec) (VHH) VHH: QVQLVESGGGSVQAGGSLKLSCAPPAGYIFSSCAMGWYRQAPGKEHELVSSIAINGTTVYADFVKGRFTIFQDNTKPTLYLQMNNLKTEDTAVYYCAAECTFSDHPYWGQGTLVTVSS	binds
